assay: Measurement of solubility of Monatin metal salt in water; type: physicochemical; conditions: 1 g salt added to 1 g water, stirred at 25° C., filtrate analyzed by HPLC
measured property: solubility in water (% by weight)

A. N[C@@H](C[C@](O)(Cc1c[nH]c2ccccc12)C(=O)O)C(=O)[O-].N[C@@H](C[C@](O)(Cc1c[nH]c2ccccc12)C(=O)O)C(=O)[O-].[Mg+2] [(2S,4R)Monatin magnesium salt]
B. N[C@H](C[C@](O)(Cc1c[nH]c2ccccc12)C(=O)O)C(=O)[O-].N[C@H](C[C@](O)(Cc1c[nH]c2ccccc12)C(=O)O)C(=O)[O-].[Mg+2] [(2R,4R)Monatin magnesium salt]
C. N[C@H](C[C@](O)(Cc1c[nH]c2ccccc12)C(=O)O)C(=O)[O-].[K+] [(2R,4R)Monatin potassium salt]
Query :: Sort entries by solubility in water from minimum to maximum value. Reply with the labels, ordered as the question asks.
Result :: B, A, C
(B: 1.6 % by weight, A: 14.5 % by weight, C: 37.8 % by weight)
